- targetOrSystem: Notum (Homo sapiens, UniProt Q6P988, C330S)
- Sequence (Q6P988 81-451 C330S): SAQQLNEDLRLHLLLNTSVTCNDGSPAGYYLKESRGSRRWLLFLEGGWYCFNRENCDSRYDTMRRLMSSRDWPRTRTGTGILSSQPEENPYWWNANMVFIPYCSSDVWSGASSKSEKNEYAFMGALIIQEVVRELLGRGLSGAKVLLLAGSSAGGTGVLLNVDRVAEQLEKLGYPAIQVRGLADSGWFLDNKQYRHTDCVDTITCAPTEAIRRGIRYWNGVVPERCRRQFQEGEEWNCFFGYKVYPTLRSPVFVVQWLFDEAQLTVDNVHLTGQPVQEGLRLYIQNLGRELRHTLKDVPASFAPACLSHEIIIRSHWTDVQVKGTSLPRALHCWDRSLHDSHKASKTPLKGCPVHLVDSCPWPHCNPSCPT
- conditionDetails: supplementary CSV
propertyName: LLE

(Q) Lab note: need LLE with Notum (Homo sapiens, UniProt Q6P988, C330S) for entry CCOc1cccc(-c2nnc(N)s2)c1 , please look it up.
(A) 1.8

(Q) What do you have for COC(=O)COc1ccc(C#N)cc1 ?
(A) 2

(Q) Same read-out for Cc1ccc(C)c(OC(=O)c2ccncc2)c1 ?
(A) 1.1

(Q) Would you kindly repeat that for Cl.Oc1c(CN2CCOCC2)ccc2ccccc12 ?
(A) 1.9

(Q) Would you kindly repeat that for N#CNc1nc2ccccc2[nH]1 ?
(A) 3.5

(Q) Ok, now COCC(=O)NCc1ccccc1
(A) 3.2

(Q) Subsequent entry: COC(=O)c1ccccc1Oc1ccc(N)cc1 [compound 6, Methyl 2-(4-aminophenoxy)benzoate]
(A) 0.9

(Q) Also check CCc1ccc(OCC(=O)N2CCCCC2)cc1
(A) 0.7

(Q) Also Nc1ccccc1OCc1ccccc1 , if possible.
(A) 0.6

(Q) What do we get for Nc1ccccc1Nc1ccccn1 ?
(A) 1.6

Take each entry in turn and give its LLE.
1. CC(=O)Nc1ccc(Nc2ccccc2)cc1 [compound 25, N-(4-Anilinophenyl)acetamide]
2. CC(=O)Nc1ccc2nsnc2c1
3. Cc1ccc(CN(C)Cc2ccccc2)o1
4. OCc1ccc(-n2cnc3ccccc32)cc1

(A)
1.6
1.4
-0.4
1.7

Provide each entry's LLE from the list below.
1. CC(=O)Nc1cccc2nonc12
2. Cc1ccccc1CNc1nnnn1C
3. COc1ccc(CNC(=O)[C@@H]2CCCO2)cc1
4. C[C@@H](Oc1ccc(-c2ccccc2)cc1)C(=O)O
5. Oc1c(F)cc(F)cc1-c1cc[nH]n1
6. c1cc2c(cc1CNC[C@H]1CCCO1)OCO2
7. CCn1c(NC(C)=O)nc2ccccc21
8. Nc1nonc1N1CCCCC1

(A)
[2.5, 2, 2.7, 0.2, 3.6, 0.9, 1.5, 2.7]

Hello, I would appreciate it if you could give LLE for each entry below.
1. CC1CCN(Cc2c[nH]c3ccccc23)CC1
2. Nc1ccc(NCc2cccnc2)c(C(=O)O)c1
3. CCc1noc(C)c1C(=O)Nc1cc(C)on1
4. N#CCN1CCN(c2cccc(Cl)c2)CC1

(A)
1: 0.2; 2: 3; 3: 2.7; 4: 0.7

Please look at the items below and tell me LLE for each one, in order.
1. C[C@H]1CCCCN1C(=O)N1CCOCC1
2. Cc1nc2ccccn2c1C(=O)NCC(C)C
3. c1ccc(CNCc2ccc3c(c2)OCO3)nc1
4. Cn1nc(O)cc1Nc1ccccc1

(A)
1: 1.2; 2: 0.6; 3: 3.2; 4: 1.8
